Tested on: P. aeruginosa PAO1
Assay: Intrinsic MIC, P. aeruginosa PAO1
Assay type: cell-based
Details: Pseudomonas aeruginosa; P. aeruginosa PAO1; substance alone (no antibiotic / no enhancer); read-out: MIC alone, P. a
Procedure: Antibiotic enhancer concentrations were determined using previously reported protocols.
// values below are reported MIC
QUANTITY_KIND: MIC

MOLECULE	RECORDED_VALUE
O=C(C=Cc1ccccc1)NCCCNCCCCCCNCCCNC(=O)C=Cc1ccccc1.O=C(O)C(F)(F)F.O=C(O)C(F)(F)F [Compound 13b]	> 278 µM
O=C(N[C@H](CO)[C@H](O)c1ccc([N+](=O)[O-])cc1)C(Cl)Cl	> 200 µM
CN(C)c1ccc(O)c2c1C[C@H]1C[C@H]3[C@H](N(C)C)C(O)=C(C(N)=O)C(=O)[C@@]3(O)C(O)=C1C2=O	70 µM
CCn1cc(C(=O)O)c(=O)c2ccc(C)nc21	> 200 µM
C[C@H]1c2cccc(O)c2C(=O)C2=C(O)[C@]3(O)C(=O)C(C(N)=O)=C(O)[C@@H](N(C)C)[C@@H]3[C@@H](O)[C@@H]21 [doxycycline, reference compound]	144 µM
CC[C@H]1OC(=O)[C@H](C)[C@@H](O[C@H]2C[C@@](C)(OC)[C@@H](O)[C@H](C)O2)[C@H](C)[C@@H](O[C@@H]2O[C@H](C)C[C@H](N(C)C)[C@H]2O)[C@](C)(O)C[C@@H](C)C(=O)[C@H](C)[C@@H](O)[C@]1(C)O	> 200 µM
